The compounds listed here are annotated with their melting point.

compound | melting point
COc1c(N2CCC(O)C(CO)C2)c(F)cc2c(=O)c(C(=O)O)cn(C3CC3)c12 (stereo not shown) | 115 to 125 °C
COc1c(N2CCC(C(O)CCO)CC2)c(F)cc2c(=O)c(C(=O)O)cn(C3CC3)c12 (stereo not shown) | 210 to 214 °C
COc1c(N2CCC(O)(CO)CC2)c(F)cc2c(=O)c(C(=O)O)cn(C3CC3)c12 | 200 to 210 °C (dec.)
COc1c(N2CCC(C(O)CO)CC2)c(F)cc2c(=O)c(C(=O)O)cn(C3CC3)c12 (stereo not shown) | 200 to 204 °C

Data credit: patent US20050096278A1
